# System: MAP4K4;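 also: KINOMEscan kinase panel screen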
# Condition details: concentration: 1 μM,replicates: in singlicate; n = 1
Mark true only for %Inh values smaller than 10%; exact matches and larger values are false.

>  <Compound>
C[C@@H](Oc1cc(-n2cnc3cc(-c4ccncc4)ccc32)sc1C(N)=O)c1ccccc1Cl [GSK479719]

>  <Answer label>
false

$$$$
>  <Compound>
c1ccc(Oc2ccc(Nc3ccnc4ccc(-c5ccccn5)cc34)cc2)cc1 [GW407034]

>  <Answer label>
false

$$$$
>  <Compound>
NC(=O)c1ccc(-c2cc3ncnc(SCC(=O)O)c3s2)cc1

>  <Answer label>
true

$$$$
>  <Compound>
COC(=O)c1cccc(NC(=O)NC2CCN(c3ccnc(NCc4ccc(F)cc4)n3)CC2)c1 [GSK1379860]

>  <Answer label>
true

$$$$
>  <Compound>
Cc1cccc(-c2nc(Nc3ccncc3)c3sccc3n2)n1 [GW869641]

>  <Answer label>
false

$$$$
